Origin of measurements: patent US10669252B2

- study target: TLR8 (Homo sapiens, UniProt Q9NR97)
- Construct: host or cells: HEK293 (HEK-BLUE-hTLR8)
- Sequence (Q9NR97 27-1041): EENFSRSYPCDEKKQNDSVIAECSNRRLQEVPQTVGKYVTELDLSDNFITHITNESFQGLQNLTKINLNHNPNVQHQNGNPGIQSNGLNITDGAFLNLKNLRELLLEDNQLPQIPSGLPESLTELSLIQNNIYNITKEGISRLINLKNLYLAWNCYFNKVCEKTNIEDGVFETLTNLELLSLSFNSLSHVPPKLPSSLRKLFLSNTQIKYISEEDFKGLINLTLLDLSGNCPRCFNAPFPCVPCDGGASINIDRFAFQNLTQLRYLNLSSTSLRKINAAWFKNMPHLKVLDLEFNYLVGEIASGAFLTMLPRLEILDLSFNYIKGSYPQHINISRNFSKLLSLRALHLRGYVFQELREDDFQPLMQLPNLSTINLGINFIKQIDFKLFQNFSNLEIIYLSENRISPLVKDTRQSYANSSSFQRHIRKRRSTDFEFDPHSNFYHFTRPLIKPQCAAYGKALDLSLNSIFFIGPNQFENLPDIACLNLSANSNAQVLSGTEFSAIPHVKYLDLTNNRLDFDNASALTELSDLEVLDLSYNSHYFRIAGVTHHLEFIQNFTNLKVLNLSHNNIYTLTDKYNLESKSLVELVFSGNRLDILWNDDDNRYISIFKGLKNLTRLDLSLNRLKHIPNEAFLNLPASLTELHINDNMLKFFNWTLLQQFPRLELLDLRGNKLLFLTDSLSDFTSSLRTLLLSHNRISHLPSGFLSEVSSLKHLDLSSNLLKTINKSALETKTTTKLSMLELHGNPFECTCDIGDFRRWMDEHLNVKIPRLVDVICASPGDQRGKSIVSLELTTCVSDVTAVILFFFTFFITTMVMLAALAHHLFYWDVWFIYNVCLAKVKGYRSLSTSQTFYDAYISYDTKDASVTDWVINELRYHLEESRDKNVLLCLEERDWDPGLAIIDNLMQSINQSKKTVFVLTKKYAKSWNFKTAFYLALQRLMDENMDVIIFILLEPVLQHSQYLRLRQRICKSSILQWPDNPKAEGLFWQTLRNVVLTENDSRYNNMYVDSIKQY
- test summary: TLR8 cell based assay (HEK-BLUE-hTLR8, SEAP reporter linked to NF-κB activation)
- cond: HEK-BLUE-hTLR8 cells, 24 h treatment, SEAP/QUANTI-Blue readout
Assignment: determine reported EC50 for the given molecules.

Provide only the value of recorded EC50 for CCCN(CCC)C(=O)C1=Cc2ccc(-c3ccc4c(=O)[nH]ccc4c3)cc2N=C(N)C1 [Compound 1-1-1] 1000 to 10000 nM

Provide only the value of recorded EC50 for CCCN(CCC)C(=O)C1=Cc2ccc(-c3ccc4c(=O)n(Cc5nccn5C)ccc4c3)cc2N=C(N)C1 [Compound 1-2-33] < 100 nM

Provide only the value of recorded EC50 for CCCN(CCC)C(=O)C1=Cc2ccc(-c3ccc4c(=O)n(CCNS(C)(=O)=O)ncc4c3)cc2N=C(N)C1 [Compound 1-8-8] < 100 nM

Provide only the value of recorded EC50 for CCCN(CCC)C(=O)C1=Cc2ccc(-c3cc4c(=O)n(CC)ccc4n3C)cc2N=C(N)C1 [Compound 1-5-1] 1000 to 10000 nM

Provide only the value of recorded EC50 for CCCN(CCC)C(=O)C1=Cc2ccc(-c3ccc4c(=O)n(CCNC(C)=O)ccc4c3)cc2N=C(N)C1 [Compound 1-2-18] < 100 nM

Provide only the value of recorded EC50 for CCCN(CCC)C(=O)C1=Cc2ccc(-c3ccc4ccn(CCO)c(=O)c4c3)cc2N=C(N)C1 [Compound 1-2-51] 1000 to 10000 nM

Provide only the value of recorded EC50 for CCCN(CCC)C(=O)C1=Cc2ccc(-c3cc4c(=O)n(CC)ccc4s3)cc2N=C(N)C1 [Compound 1-5-2] 1000 to 10000 nM

Provide only the value of recorded EC50 for CCCN(CCC)C(=O)C1=Cc2c(C)cc(-c3ccc4c(=O)n(Cc5ncccn5)ncc4c3)cc2N=C(N)C1 [Compound 2-3-2] < 100 nM

Provide only the value of recorded EC50 for CCCN(CCC)C(=O)C1=Cc2ccc(-c3ccc4c(=O)n(Cc5ncco5)ncc4c3)cc2N=C(N)C1 [Compound 1-8-15] < 100 nM

Provide only the value of recorded EC50 for CCCN(CCC)C(=O)C1=Cc2ccc(-c3ccc4c(c3)CCN(CCO)C4=O)cc2N=C(N)C1 [Compound 1-4-10] 100 to 1000 nM

Provide only the value of recorded EC50 for CCCN(CCC)C(=O)C1=Cc2c(F)cc(-c3ccc4c(=O)n(CCS(C)(=O)=O)ccc4c3)cc2N=C(N)C1 [Compound 1-10-4] < 100 nM

Provide only the value of recorded EC50 for CCCN(CCC)C(=O)C1=Cc2ccc(-c3ccc4c(=O)n(Cc5ccn(C)n5)ccc4c3)cc2N=C(N)C1 [Compound 1-2-35] < 100 nM

Provide only the value of recorded EC50 for CCCN(CCC)C(=O)C1=Cc2ccc(-c3ccc4c(=O)n(CCS(=O)(=O)CC)ncc4c3)cc2N=C(N)C1 [Compound 1-8-12] < 100 nM

Provide only the value of recorded EC50 for CCCN(CCC)C(=O)C1=Cc2ccc(-c3ccc4c(=S)n(Cc5ncccn5)ncc4c3)cc2N=C(N)C1 [Compound 1-14-1] < 100 nM
